Target: Serine/threonine-protein kinase TAO2 (Rattus norvegicus)
Sequence (Q9JLS3 whole entry, the tested form may be a part): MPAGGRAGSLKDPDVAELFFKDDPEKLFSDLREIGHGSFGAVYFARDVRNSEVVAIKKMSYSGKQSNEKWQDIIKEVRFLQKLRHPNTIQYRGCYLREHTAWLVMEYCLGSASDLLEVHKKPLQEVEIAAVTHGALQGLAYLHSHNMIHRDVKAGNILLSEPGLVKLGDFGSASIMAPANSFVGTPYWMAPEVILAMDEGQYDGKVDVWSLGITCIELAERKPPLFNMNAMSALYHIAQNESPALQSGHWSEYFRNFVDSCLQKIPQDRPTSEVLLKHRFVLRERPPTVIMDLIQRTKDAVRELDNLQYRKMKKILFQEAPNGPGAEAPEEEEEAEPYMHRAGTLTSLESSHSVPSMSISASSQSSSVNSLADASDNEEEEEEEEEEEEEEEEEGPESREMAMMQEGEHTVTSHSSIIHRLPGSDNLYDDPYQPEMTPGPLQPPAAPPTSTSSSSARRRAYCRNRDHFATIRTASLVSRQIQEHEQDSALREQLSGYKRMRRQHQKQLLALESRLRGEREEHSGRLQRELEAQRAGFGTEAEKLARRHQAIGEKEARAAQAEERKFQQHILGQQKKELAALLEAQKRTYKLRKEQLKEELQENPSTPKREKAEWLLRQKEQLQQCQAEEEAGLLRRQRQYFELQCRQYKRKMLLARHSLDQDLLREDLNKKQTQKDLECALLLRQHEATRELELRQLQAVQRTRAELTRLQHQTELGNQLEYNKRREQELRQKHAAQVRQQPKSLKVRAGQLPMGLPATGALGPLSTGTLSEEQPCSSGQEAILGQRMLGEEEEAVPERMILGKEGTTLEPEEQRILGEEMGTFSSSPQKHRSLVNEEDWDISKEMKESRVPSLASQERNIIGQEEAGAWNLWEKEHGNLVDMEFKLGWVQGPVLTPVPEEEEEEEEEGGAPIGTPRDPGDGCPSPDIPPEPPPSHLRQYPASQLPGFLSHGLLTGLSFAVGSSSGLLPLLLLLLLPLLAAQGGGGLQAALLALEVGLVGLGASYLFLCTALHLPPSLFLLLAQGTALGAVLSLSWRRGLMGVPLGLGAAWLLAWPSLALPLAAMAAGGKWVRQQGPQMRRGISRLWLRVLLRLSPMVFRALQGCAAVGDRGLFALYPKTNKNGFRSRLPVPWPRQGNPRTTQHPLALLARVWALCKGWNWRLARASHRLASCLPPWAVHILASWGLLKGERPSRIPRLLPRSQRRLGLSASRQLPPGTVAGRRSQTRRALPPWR
Test: Inhibition of rat TAOK2 (1 to 320 residues) expressed in Baculovirus/insect cell expression system assessed as remaining activity using MBP as substrate and [32P]ATP measured after 10 mins by Kinase-Glo assay
Entries annotated with measured IC50
Reported endpoint: IC50 (nM)

>>> numeric_value("CCC(=O)Nc1nc(C)c(-c2csc(Nc3ccccc3OC)n2)s1")
1400
>>> numeric_value("COc1ccc(Cl)cc1Nc1nc(-c2sc(NC(C)=O)nc2C)cs1")
1100
>>> numeric_value("CC(=O)Nc1nc(C)c(-c2csc(Nc3cccc(C)c3)n2)s1")
900
>>> numeric_value("CCC(=O)Nc1nc(C)c(-c2csc(Nc3ccc(N(C)C)cc3)n2)s1")
1200
